The values you see were collected from patent US12187700B2.

experiment: Solubility in water (excess solid dispersed at least 24 hours at room temperature, UPLC-UV); assay type: physicochemical; conditions: thermodynamic from solid
OUTCOME MEASURE: solubility (µg/mL)
Write down the numeric answer in µg/mL and omit the unit.

[ask] Could you tell me which solubility is on file for CS(=O)(=O)c1cncc(C(=O)N2[C@@H](C(=O)N[C@@H](c3cc(F)c(C(F)(F)F)cc3F)C3CC3)C[C@H]3C[C@H]32)c1 [Form I] ?
[reply] 13
